Tested on: male mice (ICR)
methodNotes: Muscle relaxation: grip strength
Type: in vivo
assayConditions: Mus musculus, ip; intraperitoneal, at time of maximum effect; 50% of activity vs vehicle only; read-out: MR test ED50, III = Grip strength
Protocol: For testing, male mice (ICR) were purchased from ORIENT BIO INC. (Korea), divided into several groups with 6 mice in each group, and were adapted for 4-5 days. The mice having the weight ranging from 19 g to 26 g were employed for the test. The pharmacological effect of the test compounds on muscle relaxation was evaluated by Rotarod test, grip strength test, and muscular force (wire hang) test. All mice were adapted to the test environment at one hour before starting the tests. […]
parameterMeasured: ED50 (mg/kg)
Give just the number in mg/kg; leave the unit off.

Lab entry: male mice (ICR) assay, molecule CNC(=O)O[C@H](C)[C@H](O)c1ccccc1Cl , ED50 = 28.3

Fill in: male mice (ICR) ED50 for C[C@H](OC(N)=O)[C@@H](O)c1ccccc1Cl = 40.9

# lookup: CC(C)NC(=O)O[C@@H](C)[C@@H](O)c1ccccc1Cl on male mice (ICR), ED50 = 91.5

Noted ED50 for C[C@@H](OC(N)=O)[C@H](O)c1ccccc1Cl , tested on male mice (ICR): 110

male mice (ICR) data for CC[C@H](OC(N)=O)[C@@H](O)c1ccccc1I ; its ED50: 69.1

Record CCC(OC(N)=O)C(O)c1ccccc1Cl (racemic) has male mice (ICR) ED50 equal to 69.5

Value sought: ED50, system male mice (ICR), item CC[C@H](OC(N)=O)[C@@H](O)c1ccccc1Cl . Result: 70.7

Field ED50 (male mice (ICR)), entry CCCNC(=O)O[C@H](C)[C@H](O)c1ccccc1Cl : 73.8

Measured ED50 for this entry CNC(=O)O[C@@H](C)[C@@H](O)c1ccccc1Cl on male mice (ICR): 83.6

Noted ED50 for C[C@H](OC(=O)NC1CC1)[C@@H](O)c1ccccc1Cl , tested on male mice (ICR): 87.4

Source: patent US20130184338A1
